# SYSTEM_NAME: Torsin-1A-interacting protein 1 (Homo sapiens)
# ASSAY_NOTES: LAP1 binders from COS7 cell lysate, primary screen, small-molecule microarray, 635/667 nm fluorescence (AID 1116)
# COND: COS7-hLAP1 lysate binding, 635 nm fluorescence, higher = more signal

{"columns": ["COMPOUND", "composite z-score"],
 "data": [
  ["C=C(CCCC)C(=O)CC[C@H](OC(=O)c1ccccc1-c1ccccc1C(=O)O)c1cccc(OCCO)c1", 0.206],
  ["CCCCN1CC=CC23O[C@@H]4/C=C\\CCCOC(=O)C4[C@H]2C(=O)N(CCCCCCO)[C@@H]3C1=O (stereo not given in full)", 3.21],
  ["COC(=O)[C@]1(Cc2ccccc2N=[N+]=[N-])N=C(c2ccc(OCCCO)cc2)O[C@@H]1c1ccccc1CN=[N+]=[N-]", 1.3],
  ["COC(=O)C1=CC(CCCO)=CC(c2ccc(CN3CCCC3)cc2)N(C)C=C1C(=O)OC (stereo not given)", 1.66],
  ["COCCOC(=O)N1C(=O)[C@@]2(c3cc(C#CC4=CCCCC4)ccc31)[C@H](c1ccc(O)cc1)N1[C@H](c3ccccc3)[C@H](c3ccccc3)OC(=O)[C@H]1[C@@H]2C(=O)N1CCc2cc(OC)c(OC)cc2C1", 2.23]
]}

* * *

# SYSTEM_NAME: Calmodulin-1 (Homo sapiens)
# ASSAY_NOTES: CALM1 binders on microarrays, EGTA buffer, profiling panel, biochemical, small-molecule microarray, Cy5-labelled CALM1 (AID 1111);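 note: labelled calmodulin applied in Tris saline Tween buffer holding calcium plus EGTA and DTT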
# COND: Cy5-CALM1 binding fluorescence, higher = more signal
Each entry below carries its reported composite z-score.

{"columns": ["MOLECULE", "composite z-score"],
 "data": [
  ["COc1ccc(C(=O)Nc2ccc(CN3C(=O)[C@]4(O[C@H](CC(=O)N(CCO)Cc5ccccc5)[C@@H]([Si](C)(C)c5ccc(OC)cc5)[C@@H]4C)c4ccccc43)cc2)cc1", -0.0162],
  ["C[N+](C)(C)CCCC[C@@H]1NC(=O)[C@H]2C[C@@H](C(=O)NCCCCCN)[C@@H](c3ccc(O)cc3)N2C1=O", 1.67],
  ["CC(C)N1C(=O)[C@@]2(Cc3ccccc31)c1ccccc1C(=O)N(Cc1ccccc1)[C@H]2c1ccc(CO)cc1", -0.439],
  ["COC(=O)C(CC#Cc1ccc2c(c1)[C@]1(C(=O)N2)[C@H](c2ccccc2OCCO)N2[C@H](c3ccccc3)[C@H](c3ccccc3)OC(=O)[C@H]2[C@@H]1C(=O)N1CCN(c2ncccn2)CC1)C(=O)OC", 0.999],
  ["O=C1O[C@H](c2ccccc2)[C@H](c2ccccc2)N2[C@H]1[C@@H](C(=O)N1CCN(c3ncccn3)CC1)[C@]1(C(=O)Nc3ccc(C#CC4(O)CCCCCC4)cc31)[C@H]2c1ccc(O)cc1", 1.14],
  ["CCCN1C(=O)[C@@]2(c3ccc([N+](=O)[O-])cc3)CC(=O)N(C3CCCCC3)[C@@H]2c2ccc(CO)cc21", -0.0766],
  ["C=C(COC)C(=O)CC[C@H](OC(C)=O)c1ccccc1OCCO", -0.714],
  ["COc1ccc([Si](C)(C)[C@H]2[C@H](CCO)O[C@@]3(C(=O)N(Cc4ccccc4)c4ccc(NC(=O)[C@H](C)O)cc43)[C@@H]2C)cc1", 0.362],
  ["CC(C)c1ccc(NN2C(C(O)C3CCCCC3)C=CC3C(=O)N(c4ccccc4)C(=O)C32)cc1 (stereo not drawn)", 2.23],
  ["O=C(N1CCOCC1)[C@]1(CCS(=O)(=O)c2ccccc2)N=C(c2ccc(OCCCO)cc2)O[C@@H]1c1ccccc1", 1.52],
  ["C=CCOC(=O)[C@H]1[C@@H]2C(=O)O[C@@H](c3ccccc3)[C@@H](c3ccccc3)N2[C@@H](c2ccc(OCCOC(=O)[C@H]3C[C@H]4C(=O)NCC(=O)N4[C@H]3c3ccc(O)cc3)cc2)[C@]12C(=O)Nc1ccccc12", 1.18],
  ["[N-]=[N+]=NCc1ccccc1[C@H]1OC(c2ccc(OCCCO)cc2)=N[C@@]1(Cc1ccccc1N=[N+]=[N-])C(=O)O", 1.82],
  ["COCCCNC(=O)[C@@]1(Cc2ccccc2I)c2ccccc2C(=O)N(C2CCCCC2)[C@H]1c1ccc(CO)cc1", 0.634]
]}
